Below, each entry is listed with its recorded pIC50.
- target under test: OachGOBP2 (Orthaga achatina, UniProt H6UEU3)
- Sequence (H6UEU3 entry or part of it): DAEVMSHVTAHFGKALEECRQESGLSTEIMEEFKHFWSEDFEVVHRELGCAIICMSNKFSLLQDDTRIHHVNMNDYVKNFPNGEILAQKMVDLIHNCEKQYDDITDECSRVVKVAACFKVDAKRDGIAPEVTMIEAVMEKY
- assay summary: Fluorescence competitive binding assay (1-NPN displacement), OachGOBP2
- settings: competitive ligand replacing 50% 1-NPN; 2 µM protein and 2 µM 1-NPN in 50 mM Tris HCl; read-out: GOBP2 IC50
- Description: A fluorescence competition binding assay was used to test the binding properties of GOBPs to 22 plant volatiles of camphor [22, 23] and 4 sex pheromones of O. achatina. The fluorescence competitive binding assay was conducted on an F-7000 fluorescence spectrophotometer with a 1 cm light path quartz cuvette and 10 nm slits for excitation and emission. The excitation wavelength was 337 nm, and the emission spectrum was recorded between 380 and 460 nm. […]
pIC50 here is simply -log10 of the concentration when that concentration is written in mol/L.

Below: 4 molecules and their reported pIC50.
| molecule | pIC50 |
| --- | --- |
| CCCC/C=C\CCCCCCCCCCO [Z11-16: OH] | 5.41 |
| CC/C=C\CCO [Z3-Hexen-1-ol] | 4.67 |
| CC12CCC(CC1=O)C2(C)C (centres unmarked) [Camphor] | 4.68 |
| CC(C)=CCC/C(C)=C/CC/C(C)=C/CO [Farnesol] | 5.06 |

Okay, next one:
Exercise: Test system OachGOBP2 (Orthaga achatina, UniProt H6UEU3); read-out pIC50; what value for CC/C=C\CCOC(C)=O [Z3-Hexenyl acetate] ?
Solution: 4.78
